We begin with a simple list: items and their reported apparent KD of K4 kissing-loop reporter.
- System: K4 kissing-loop RNA reporter;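 note: bound reporter read as fluorescence of individual clusters on recovered sequencing chips by microscopy, with normalized cluster intensities fitted with a binding model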
- protocol.details: apparent KD of K4 kissing-loop reporter; higher = weaker reporter binding
- condition.details: Eterna round: R107; input ligand: theophylline 20 uM
readout: apparent KD of K4 kissing-loop reporter (µM)

> print(dat)
                           residue.sequence                                  readout  endpoint.result
1  CAUUCUAUAUGCAGUGAUGUUGCAACUGAUACCAGUAUCGAAAGAUACCCUUGGCAGCGGAAAACCGCUACGUAAUUUAAGAAUG [Ex Theophylline A K4 22]  apparent KD of K4 kissing-loop reporter            0.523
2  AAAUUUAUAUUAGAUACCAGCAUUUUGAAUGUUUAUUAUGACAAGAGUGAUGUUCUUGUAUGCCCUUGGCAGCUGGUAUGGGUUU [KL-XTheo-B24]  apparent KD of K4 kissing-loop reporter             0.12
3  AAAUUUAUAUUAGAUACCAGUUUAUUGGAUGUAAAUUAUGACAUGAGUGAUGUUCAUGUAAGCCCUUGGCAGCUGGUAUGGGUUU [KL-XTheo-B22]  apparent KD of K4 kissing-loop reporter            0.124
4  GGUGACGGCCAGGAGUGAUGUAUAGAAUAGCGAGGACCGGUACGGCCGCCACUCGUGAAGAAAAGGGAGUGAUGUUCCGUAAUGG [Kazoo B]  apparent KD of K4 kissing-loop reporter            0.229

----------
Below, each entry is listed with its recorded apparent KD of MS2 coat protein.
- System: MS2 coat protein
- protocol.details: apparent KD of MS2 coat protein; higher = weaker reporter binding
- condition.details: Eterna round: R107; input ligand: arginine 13.2 mM

residue.sequence	unit.of.measurement	apparent KD of MS2 coat protein
AAACGUUGCUCAGAUACCAGACAUGAGGAUCACCCAUGUACCAAGGUAACCGAAAGGCAUGUCCCUUGGCAGCUGAGCAACGAAA [MAT - Exclusion Theophlline B - Mod of Eli - D16]	nM	12.4
CUACAUUUGUAGAAACCGGUCACCAUUACUCGAGGACCGGUACGGCCGCCACUCGUGUCAUGUGAUACAUGAGGAUCACCCAUGU [Tryptophan A 10]	nM	21.7
UUGGGUUUGCGAAGGAGCGGGAAAUAUAUAUAUAUAAUCCUAACAUGAGGAUCACCCAUGUCCCAGGUAGGUCGCGCGGGUUUGG [12.M]	nM	42
AUGGACGACGAUCUGGGAAAACCAGAUCGACGAGGACCGGUACGGCCGCCACUCGUGUUUAUUUAACAUGAGGAUCACCCAUGUA [#13 Tryptophan A Same State]	nM	34
UGUAUGUGAUCUGAUACCAGUCCAACUGGUAAAUCAUGAGGAUCACCCAUGGAAAAUUGGGACCCUUGGCAGCAGAUCGCAUACU	nM	94.1
GAACAUGAGGAUCACCCAUGUGAGAAUGAUACCAGUAGAAGAAGAUGCCCUUGGCAGCGUGCGUGAGGAUCACCCAUGUAGGAGG [e-theoA-0]	nM	30
